Data origin: ChEMBL document CHEMBL1139462

assay: Volume of distribution in mouse at 2 mg/kg, iv; type: ADME, organism-based; parameters: dose 2 mg/kg, route intravenous; settings: in vivo, read-out: Vdss
MEASURED_QUANTITY: Vd
Hey, just the number and the unit after it is fine.

Exercise: State the recorded Vd for this entry: `COc1ccc2c(c1O)C(=O)O[C@@H]2[C@H]1c2c(cc3c(c2OC)OCO3)CCN1C`
Solution: 28.1 L/kg

Exercise: State the recorded Vd for this entry: `COc1ccc2c(c1N)C(=O)O[C@@H]2[C@H]1c2c(cc3c(c2OC)OCO3)CCN1C`
Solution: 8.47 L/kg

---

Give measured clearance for each item. Keep answers brief.
test: Clearance in mouse at 2 mg/kg, iv; format: ADME, organism-based; design: dose 2 mg/kg, route intravenous; settings: in vivo
Kindly answer with a numeric value in mL/min/kg, unit omitted.

Exercise: State the recorded clearance for this entry: `COc1ccc2c(c1N)C(=O)O[C@@H]2[C@H]1c2c(cc3c(c2OC)OCO3)CCN1C`
Solution: 95.3

Exercise: State the recorded clearance for this entry: `COc1ccc2c(c1O)C(=O)O[C@@H]2[C@H]1c2c(cc3c(c2OC)OCO3)CCN1C`
Solution: 101
